Biological target: UniProt Q92769
Sequence (Q92769 whole entry): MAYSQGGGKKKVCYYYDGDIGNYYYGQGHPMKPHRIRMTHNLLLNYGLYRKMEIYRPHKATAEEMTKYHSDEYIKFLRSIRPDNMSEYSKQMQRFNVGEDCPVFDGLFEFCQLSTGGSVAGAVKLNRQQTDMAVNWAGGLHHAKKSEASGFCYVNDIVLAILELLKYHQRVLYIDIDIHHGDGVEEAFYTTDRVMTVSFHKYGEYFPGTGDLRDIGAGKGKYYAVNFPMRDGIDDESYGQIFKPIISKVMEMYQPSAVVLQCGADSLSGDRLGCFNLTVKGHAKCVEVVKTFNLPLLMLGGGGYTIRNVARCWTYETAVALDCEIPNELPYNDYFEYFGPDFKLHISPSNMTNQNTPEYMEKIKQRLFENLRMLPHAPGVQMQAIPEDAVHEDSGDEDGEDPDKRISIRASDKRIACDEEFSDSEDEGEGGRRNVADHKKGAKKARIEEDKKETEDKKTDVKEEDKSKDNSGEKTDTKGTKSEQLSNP
parameter_measured: IC50

Prompt: Reported IC50 for UniProt Q92769, given CN(C(=O)CCCCCCCNc1cccc2c1C(=O)N(C1CCC(=O)NC1=O)C2=O)c1ccc(NC(=O)CCCCCCC(=O)NO)cc1 (stereo not shown) [Compound 3] ?
Completion: 14.4 µM

Ref: patent US12569563B2
